Record set: IC50 | Solute carrier organic anion transporter family member 1B1 (Homo sapiens) | literature, multiple sources.

Example entries begin here.
COMPOUND	IC50
C=CC1=C(C)/C(=C/c2[nH]c(Cc3[nH]c(/C=C4\NC(=O)C(C)=C4C=C)c(C)c3CCC(=O)O)c(CCC(=O)O)c2C)NC1=O	1.32 µM
CC[C@H]1OC(=O)[C@H](C)C(=O)[C@H](C)[C@@H](O[C@@H]2O[C@H](C)C[C@H](N(C)C)[C@H]2O)[C@](C)(OC)C[C@@H](C)C(=O)[C@H](C)[C@H]2N(CCCCn3cnc(-c4cccnc4)c3)C(=O)O[C@]12C	3.47 µM

Give the measured IC50 of Cc1cc(O)c(C=O)c2c1C(=O)Oc1c(C)c(O)c3c(c1O2)C(O)OC3=O (configuration not stated) . 1.15 µM

Give the measured IC50 of CC(C)C[C@](C)(N)COc1cnc(-c2ccnc(C(F)F)c2)cc1C(F)F . > 50 µM

Give the measured IC50 of CCCCCc1c2c(cc(O)c1C(=O)O)OC(=O)c1c(cc(OC)cc1C(=O)CCCC)O2 . 0.724 µM

Give the measured IC50 of Cc1cc(OCCCS(C)(=O)=O)cc(C)c1-c1cccc(COc2ccc3c(c2)OC[C@H]3CC(=O)O)c1 . 2.28 µM

Give the measured IC50 of CCCc1nc(C(C)(C)O)c(C(=O)OCc2oc(=O)oc2C)n1Cc1ccc(-c2ccccc2-c2nnn[nH]2)cc1 . 0.977 µM
